src = paper PMC3973694

Target: OR2W1 (Homo sapiens, UniProt Q9Y3N9)
Sequence (Q9Y3N9 whole entry): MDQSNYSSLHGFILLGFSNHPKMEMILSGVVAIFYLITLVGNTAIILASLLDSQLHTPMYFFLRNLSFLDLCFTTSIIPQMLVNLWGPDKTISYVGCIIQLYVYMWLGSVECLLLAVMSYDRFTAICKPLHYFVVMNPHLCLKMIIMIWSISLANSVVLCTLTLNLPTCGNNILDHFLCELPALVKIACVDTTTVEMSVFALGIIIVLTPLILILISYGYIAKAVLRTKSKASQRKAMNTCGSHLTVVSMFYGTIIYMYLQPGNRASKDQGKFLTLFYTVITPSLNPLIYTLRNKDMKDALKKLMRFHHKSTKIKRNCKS
Experiment: GloSensor cAMP assay, OR2W1-transfected Hana3A cells
Settings: activation of OR2W1, Hana3A cells, mean ± s.e.m., at least three experiments
pEC50: −log10 of the molar value.
RECORDED_METRIC: pEC50

• CC(C)=CCCC(C)CC=O (stereo not drawn) = 3.68
• CC(C)=CCC/C(C)=C/C=O = 3.89
• CC(=O)OCc1ccccc1 [Benzyl acetate, reference compound] = 4.47
